# system tested: Nrg2 (UniProt P38082)
# Sequence: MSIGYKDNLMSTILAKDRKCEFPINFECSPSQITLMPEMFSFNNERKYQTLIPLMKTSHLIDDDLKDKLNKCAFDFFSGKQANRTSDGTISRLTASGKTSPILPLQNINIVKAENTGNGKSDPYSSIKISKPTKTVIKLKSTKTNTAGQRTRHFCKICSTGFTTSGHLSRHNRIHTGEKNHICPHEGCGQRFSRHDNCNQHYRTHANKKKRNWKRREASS
# protocol text: PBM E-score (8-mer binding enrichment) (E-score (-0.5 to 0.5)); higher = stronger / more preferred TF binding
# condition parameters: protein concentration: 100 nM; construct: GST-full length
Whole data set: some 33,000 sequences, median “E-score (-0.5 to 0.5)” near -8e-05, cut for the highest 2% near 0.23. For the sample, the highest values were picked, then their nearest neighbours and some sequences at random.
readout kind: PBM E-score

item sequence: AACCCTGC
obs value: 0.134
--
item sequence: AACCCATA
obs value: 0.24
--
item sequence: ACTTTAAA
obs value: 0.0738
--
item sequence: AACCCATT
obs value: 0.00038
--
item sequence: CCTTTAAG
obs value: -0.0435
--
item sequence: AATGACGG
obs value: 0.125
--
item sequence: AGGGCCCC
obs value: 0.0359
--
item sequence: ACCCCTGA
obs value: 0.297
--
item sequence: CCCCCTGA
obs value: -0.00244
--
item sequence: AGGGCCCT
obs value: 0.432
--
item sequence: ACCCCTTA
obs value: 0.178
